Below, IC50 values reported for Plasminogen (Homo sapiens, UniProt P00747) across several publications.
readout: IC50

| compound | measured_target | readout | val |
| --- | --- | --- | --- |
| Nc1ccc(CNC(=O)[C@H](Cc2ccc(Cl)c(Cl)c2)NC(=O)[C@H](N)Cc2ccc(Cl)cc2)cn1 | Plasminogen (Homo sapiens, UniProt P00747) | IC50 | > 10 µM |
| CCC(C)[C@@H](N)C(=O)N[C@@H](Cc1cccc(F)c1)C(=O)NCc1ccc(N)nc1 (stereo partly drawn) | Plasminogen (Homo sapiens, UniProt P00747) | IC50 | > 10 µM |
| COc1ccc(S(=O)(=O)N[C@H]2CCCCN(CC(=O)NCC3CCN(C(=N)N)CC3)C2=O)cc1OC | Plasminogen (Homo sapiens, UniProt P00747) | IC50 | ≥ 2.5 µM |
| COCc1nn(Cc2ccc(Cn3ccccc3=O)cc2)cc1C(=O)NCc1cc(OC)ccc1-n1cnnn1 | Plasminogen (Homo sapiens, UniProt P00747) | IC50 | > 40 µM |
| C[C@H](NC(=O)[C@@H](C)NS(=O)(=O)Cc1ccccc1)C(=O)NCc1ccc(C(=N)N)cc1 | Plasminogen (Homo sapiens, UniProt P00747) | IC50 | > 2.5 µM |
| CCCCS(=O)(=O)N[C@H](CO)C(=O)N1CCC1C(=O)NCc1ccc(C(=N)N)cc1 (stereo partly drawn) | Plasminogen (Homo sapiens, UniProt P00747) | IC50 | > 2.5 µM |
